# target_or_test_system: SARS-CoV preparation (Frankfurt 1 strain)
# protocol_notes: phage ELISA on coated SARS-CoV preparation, plate 4 (no phage antibody 0.051)
Entries and their OD492 nm values follow.
Enter your answer as a number in OD492 nm; do not include the unit.

binder="SC03-054 (scFv) scFv: AMAEVQLVQSGGGVVQPGRSLRLSCAASGFTFSSYAMHWVRQAPGKGLEYVSGISSNGGSTYYANSVKGRFTISRDNSKNTLYLQMGSLRAEDMAVYYCARTTNRAFDIWGQGTMVTVSSGTGGSGGTGSGTGGSTDIQLTQSPDSLAVSLGERATINCKSSQSVLYSSNNKNYLAWYQQKPGQPPKLLIYWASTRESGVPDRFSGGGSGTDFTLTISSLQAEDVAVYYCQQYYSTPYSFGQGTKVEIKRAA" quantity="OD492 nm" endpoint_result=0.428
binder="SC03-031 (scFv) scFv: AMAQVQLVQSGADVKKPGSSVKVSCEASGGTFSSYAISWVRQAPGQGLEWMGRIIPILGITNYAQKFQGRVTITADKSTGTGNMELSSLRSEDTAVYYCARESGGGYDNHFDYWGQGTLVTVSSGTGGSGGTGSGTGGSTQSVLTQPPSASGTPGQRVTISCSGGSSNIGSNTVNWYQQLPGTAPKLVIYANNQRPSGVPDRFSASKSGTSASLAISGLQSEDEADYYCAAWDDSLTGGVFGGGTQLTVLSAA" quantity="OD492 nm" endpoint_result=0.635
binder="SC03-033 (scFv) scFv: AMAQVQLVQSGTEVKKPGESLKISCKGSGYGFITYWIGWVRQMPGKGLEWMGIIYPGDSETRYSPSFQGQVTISADKSINTAYLQWSSLKASDTAIYYCAGGSGISTPMDVWGQGTTVTVSSGTGGSGGTGSGTGGSTDVVMTQSPDSLAVSLGERATINCKTSHNIFSRSNNKDYLAWYQQKPGQPPRLLIYWASTRASGVPERFSGSGSGTDFSLTISSLQAEDVAVYYCQQYYSSPMYSFGQGTKVEIKRAA" quantity="OD492 nm" endpoint_result=0.288

// below: OD492 nm requested for another binder
Query: Look at this binder and give its reported OD492 nm. SC03-040 (scFv) scFv: AMAQVQLVQSGGGLVQPGGSLRLSCAASGFTFSSYAMHWVRQAPGKGLEYVSGISSNGGSTYYANSVKGRFTISRDNSKNTLYLQMGSLRAEDMAVYYCARTTNRAFDIWGQGTMVTVSSGTGGSGGTGSGTGGSTDIQMTQSPDSLAVSLGERATINCRSSQSVLYSSNNKNYLAWYQQKPGQPPKLLIYWASTRESGVPDRFSGSGSGTDFTLTISSLQAEDVAVYYCQQYYSSPYSFGQGTKLEIKRAA
Response: 0.616
